Where do these numbers come from? They come from the supplement of paper PMC10567573.

B1: SPOPL (parent)
chain: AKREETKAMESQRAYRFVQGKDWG

variants of: B1; test: protein stability index of a GFP-peptide fusion (GPS, HEK-293T) (PSI 1-6); higher = more stable; conditions: c terminus: a fixed tail appended;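 note: lentivirally expressed fusions sorted by FACS into six bins by GFP to DsRed ratio, PSI derived from sequencing read proportions per bin multiplied by bin number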
# if value of protein stability index reaches 3, tag condition met; if it stays below, tag condition not met

| var | assignedClass |
| --- | --- |
| Q19F | condition met |
| R16G | condition met |
| R13I | condition met |
| A14C | condition not met |
| M9S | condition met |
| A8W | condition not met |
| R13G | condition met |
| K7G | condition met |
| D22I | condition met |
| A1V | condition not met |
| S11I | condition not met |
| R16P | condition met |
| R16E | condition met |
| M9Y | condition not met |
| A8I | condition not met |
| V18K | condition met |
| D22P | condition met |
| Q12F | condition not met |
| G24K | condition met |
| R13C | condition not met |
| Q12A | condition not met |
| F17S | condition met |
| K2S | condition not met |
| V18H | condition not met |
| W23K | condition met |
| K21L | condition not met |
